This collection of values is drawn from patent US9562035B2.

Test system: A2780 ovarian cells
RUN_DESCRIPTION: A2780 Ovarian Cell Proliferation Assay in Lipid Reduced Medium, without Palmitate
Type: cell-based
MEASUREMENT_CONDITIONS: Homo sapiens, A2780; lipid reduced medium, without palmitate, 96 h, MTT; read-out: Proliferation A2780 w/o Palmitate pIC50 (converted)
REPORTED_METRIC: IC50 (nM)

Previously resolved entries follow.
Cc1ccc(C(=O)N2CCC(c3ccc(-c4cnn(C)c4)cc3)CC2)cc1NC(=O)c1ccccc1 = 162
COCCNc1ccc(C(=O)N2CCC(c3ccc(-c4cnn(C)c4)cc3)CC2)cc1NC(=O)c1ccc(NC(C)C)nc1 = 209

a. CCCN1CCC(C(=O)Nc2cc(C(=O)N3CCC(c4ccc(-c5cnn(C)c5)cc4)CC3)ccc2C)CC1
b. Cc1ccc(C(=O)N2CCC(c3ccc(-c4cnn(C)c4)cc3)CC2)cc1NC(=O)c1ccc(N2CCOCC2)nc1
Ask | Which record would sort first by descending IC50, a or b ? State your choice using its label.
Reply | a

###

ASSAYED_TARGET: FASN Keto-reductase Domain (Homo sapiens, UniProt P49327)
Construct: 10 μL hFASN enzyme (full length, 300 ng, purified in house) and 360 μM NADPH; made in house
Sequence (P49327 whole entry, the tested form may be a part): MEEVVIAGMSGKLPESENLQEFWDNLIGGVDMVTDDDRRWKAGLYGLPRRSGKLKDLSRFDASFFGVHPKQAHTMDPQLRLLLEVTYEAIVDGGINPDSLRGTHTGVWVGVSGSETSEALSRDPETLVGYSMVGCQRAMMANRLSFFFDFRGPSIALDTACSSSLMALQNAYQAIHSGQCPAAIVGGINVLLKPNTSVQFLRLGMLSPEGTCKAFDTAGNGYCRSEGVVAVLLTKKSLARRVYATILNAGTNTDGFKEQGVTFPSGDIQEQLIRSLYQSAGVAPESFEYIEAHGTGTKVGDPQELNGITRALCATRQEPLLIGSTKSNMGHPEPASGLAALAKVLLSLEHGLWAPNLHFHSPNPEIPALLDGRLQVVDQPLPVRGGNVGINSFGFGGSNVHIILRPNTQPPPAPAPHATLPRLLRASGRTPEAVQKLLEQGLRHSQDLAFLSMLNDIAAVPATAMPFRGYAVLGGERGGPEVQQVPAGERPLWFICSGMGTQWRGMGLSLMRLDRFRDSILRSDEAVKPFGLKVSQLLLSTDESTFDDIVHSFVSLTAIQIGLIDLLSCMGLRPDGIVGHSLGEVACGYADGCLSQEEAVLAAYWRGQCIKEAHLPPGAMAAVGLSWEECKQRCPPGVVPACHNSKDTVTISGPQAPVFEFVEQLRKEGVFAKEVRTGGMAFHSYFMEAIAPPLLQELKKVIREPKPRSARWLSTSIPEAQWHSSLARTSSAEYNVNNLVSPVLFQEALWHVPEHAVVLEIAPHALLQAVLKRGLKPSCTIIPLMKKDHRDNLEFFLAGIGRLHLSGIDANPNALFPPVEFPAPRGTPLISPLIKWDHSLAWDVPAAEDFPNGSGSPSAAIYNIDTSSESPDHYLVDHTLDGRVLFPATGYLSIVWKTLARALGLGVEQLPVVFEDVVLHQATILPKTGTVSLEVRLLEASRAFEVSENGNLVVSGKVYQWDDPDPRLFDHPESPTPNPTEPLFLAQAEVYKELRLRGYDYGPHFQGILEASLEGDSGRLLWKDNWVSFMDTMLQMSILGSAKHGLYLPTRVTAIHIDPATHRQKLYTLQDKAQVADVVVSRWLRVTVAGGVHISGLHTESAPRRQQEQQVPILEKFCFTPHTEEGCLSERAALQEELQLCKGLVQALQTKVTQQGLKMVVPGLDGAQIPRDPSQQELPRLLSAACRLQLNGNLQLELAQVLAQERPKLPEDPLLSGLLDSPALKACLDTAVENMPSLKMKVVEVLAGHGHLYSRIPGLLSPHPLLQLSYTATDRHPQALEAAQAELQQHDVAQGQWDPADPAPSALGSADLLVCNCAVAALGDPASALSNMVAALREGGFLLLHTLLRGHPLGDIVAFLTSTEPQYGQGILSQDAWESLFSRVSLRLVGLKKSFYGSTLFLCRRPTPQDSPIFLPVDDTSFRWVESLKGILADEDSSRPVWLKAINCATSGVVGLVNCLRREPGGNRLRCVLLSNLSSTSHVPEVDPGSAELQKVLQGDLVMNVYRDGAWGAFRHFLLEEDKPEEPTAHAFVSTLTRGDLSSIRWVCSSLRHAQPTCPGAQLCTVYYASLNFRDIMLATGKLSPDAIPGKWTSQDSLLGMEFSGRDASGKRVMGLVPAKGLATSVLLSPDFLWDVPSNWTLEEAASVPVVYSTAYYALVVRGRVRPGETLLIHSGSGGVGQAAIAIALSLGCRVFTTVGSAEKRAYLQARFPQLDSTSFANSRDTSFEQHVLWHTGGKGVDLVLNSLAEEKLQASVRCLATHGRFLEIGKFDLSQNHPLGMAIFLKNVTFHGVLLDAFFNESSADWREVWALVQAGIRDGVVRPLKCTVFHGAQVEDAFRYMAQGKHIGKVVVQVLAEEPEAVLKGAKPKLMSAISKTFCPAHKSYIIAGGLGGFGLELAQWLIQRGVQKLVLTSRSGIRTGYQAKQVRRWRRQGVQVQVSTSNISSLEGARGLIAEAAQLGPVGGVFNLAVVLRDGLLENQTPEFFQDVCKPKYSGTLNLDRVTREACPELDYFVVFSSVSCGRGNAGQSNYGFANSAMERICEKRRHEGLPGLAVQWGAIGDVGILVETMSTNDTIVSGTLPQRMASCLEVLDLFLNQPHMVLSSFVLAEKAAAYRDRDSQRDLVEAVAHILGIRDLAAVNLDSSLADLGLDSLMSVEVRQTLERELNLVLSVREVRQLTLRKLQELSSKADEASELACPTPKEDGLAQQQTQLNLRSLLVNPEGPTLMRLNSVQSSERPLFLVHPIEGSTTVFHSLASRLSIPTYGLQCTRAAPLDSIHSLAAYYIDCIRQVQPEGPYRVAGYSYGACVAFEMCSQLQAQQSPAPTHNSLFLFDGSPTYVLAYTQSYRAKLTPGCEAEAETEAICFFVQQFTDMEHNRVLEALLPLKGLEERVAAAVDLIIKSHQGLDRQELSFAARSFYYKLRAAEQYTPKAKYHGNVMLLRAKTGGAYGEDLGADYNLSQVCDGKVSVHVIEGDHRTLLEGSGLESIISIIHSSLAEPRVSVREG
RUN_DESCRIPTION: Fatty Acid Synthase Keto-Reductase Domain (FASN KR) Inhibition
Format: biochemical
MEASUREMENT_CONDITIONS: mean where tested more than once; read-out: FASN K-R Domain pIC50 (converted)
REPORTED_METRIC: IC50 (nM)

Previously resolved entries follow.
Cc1ccc(C(=O)N2CCC(c3ccc(-c4ccc(F)cc4)cc3)CC2)cc1NC(=O)c1ccc(NC(C)C)nc1 = 209
Cc1ccc(C(=O)N2CCC(c3ccc(-c4cnn(C)c4)cc3)CC2)cc1NC(=O)c1ccc(C(F)(F)F)cc1 = 33.9
Cc1ccc(C(=O)N2CC(c3ccc(-c4ccnc5ccccc45)cc3)C2)cc1NC(=O)c1ccc(NC(C)C)nc1 = 16.6
Cc1ccc(C(=O)N2CCC(c3ccc(-c4cnn(C)c4)cc3)CC2)cc1NC(=O)[C@@H]1CCCN1 = 1000
Cc1ccc(C(=O)N2CCC(c3ccc(-c4cnn(C)c4)cc3)CC2)cc1NC(=O)c1ccc(N2CCN[C@H](CO)C2)nc1 = 41.7
CCCCN1CC(C(=O)Nc2cc(C(=O)N3CCC(c4ccc(-c5cnn(C)c5)cc4)CC3)ccc2C)C1 = 158

1. Cc1ccc(C(=O)N2CCC(c3ccc(-c4cnn(C)c4)cc3)CC2)cc1NC(=O)c1cnc(NC2CCC2)nc1
2. Cc1ccc(C(=O)N2CCC(c3ccc(-c4cnn(C5CCC5)c4)cc3)CC2)cc1NC(=O)c1ccc(NC(C)C)nc1
3. Cc1ccc(C(=O)N2CC[C@H](c3ccc(-c4ccnn4C)cc3)[C@H](C)C2)cc1NC(=O)c1ccc(NC(C)C)nc1 (racemic)
4. Cc1ccc(C(=O)N2CCC(c3ccc4nccn4c3)CC2)cc1NC(=O)c1ccc(NC(C)C)nc1
Ask | I would appreciate it if you could sort these 4 compounds by IC50, starting from the smallest number. Output spec: labels arranged per the requested ranking.
Reply | 1, 2, 3, 4
(1: 32.4 nM, 2: 93.3 nM, 3: 1380 nM, 4: 8130 nM)

I. Cc1ccc(C(=O)N2CC(c3ccc(-c4cnn(C)c4)cc3)C2)cc1NC(=O)c1ccc(NC2CCC2)nc1
II. CCCCCN1CCC(C(=O)Nc2cc(C(=O)N3CCC(c4ccc(-c5cnn(C)c5)cc4)CC3)ccc2C)CC1
III. Cc1ccc(C(=O)N2CCC(c3ccc(-c4cnn(C)c4)cc3)CC2)cc1NC(=O)c1nc(Br)cs1
IV. Cc1ccc(C(=O)N2CC(c3ccc(-c4ccnn4C)cc3)C2)cc1NC(=O)c1ccc(NC2CCC2)nc1
Ask | // sort entries: IC50, high to low Output spec: labels arranged per the requested ranking.
Reply | III, II, IV, I

A. COc1cccc(C(=O)Nc2cc(C(=O)N3CCC(c4ccc(-c5cnn(C)c5)cc4)CC3)ccc2C)c1
B. Cc1ccc(C(=O)N2CC(c3ccc(-c4ccnn4C)cc3)C2)cc1NC(=O)c1ccc(N(C)C(C)C)nc1
C. Cc1ccc(C(=O)N2CC(c3ccc(-c4cnn(C)c4)cc3)C2)cc1NC(=O)c1ccccn1
D. Cc1ccc(C(=O)N2CCC(c3ccc(-c4cnn(C)c4)cn3)CC2)cc1NC(=O)c1ccc(Cl)nc1
E. Cc1ccc(C(=O)N2CC[C@H](c3ccc(-c4ccnn4C)cc3)[C@H](C)C2)cc1NC(=O)c1ccc(Cl)nc1 (racemic)
Ask | I would appreciate it if you could sort these 5 compounds by IC50, starting from the smallest number. Output spec: labels arranged per the requested ranking.
Reply | B, A, C, D, E
(B: 28.8 nM, A: 83.2 nM, C: 234 nM, D: 479 nM, E: 1780 nM)

I. Cc1ccc(C(=O)N2CC(c3ccc(-c4ccncc4)cc3)C2)cc1NC(=O)c1ccc(Cl)nc1
II. Cc1ccc(C(=O)N2CCC(c3ccc(-c4cnn(C)c4)cc3)CC2)cc1NC(=O)C1CN(C2CCCC2)C1
Ask | Given I and given II , which shows the smaller recorded IC50? State your choice using its label.
Reply | I
